# Lookup of reported growth inhibition by drug alone keyed by entry
- Test system: U-2932
- MEASUREMENT_DESCRIPTION: growth inhibition by drug alone (1 - RLU/untreated control) (fraction); higher = stronger inhibition
- STATED_CONDITIONS: 1000 nM; time (day): 4; 177Lu-lilotomab satetraxetan 0 ug/ml
Give the value as a plain number.

COMPOUND	growth inhibition by drug alone
CNC(=O)c1cc(Oc2ccc(NC(=O)Nc3ccc(Cl)c(C(F)(F)F)c3)c(F)c2)ccn1	0.284

Task item: For the compound shown here, CCC[C@H](NC(=O)/C(C#N)=C/c1cccc(Br)n1)c1ccccc1 , give the reported growth inhibition by drug alone.
Reply: 0.0639

Task item: Another compound to check: C[C@@H](N)[C@H]1CC[C@H](C(=O)Nc2ccncc2)CC1
Reply: -0.0273

Task item: Another compound to check: CC[C@H](CO)Nc1nc(NCc2ccccc2)c2ncn(C(C)C)c2n1 [Roscovitine (Seliciclib, CYC202)]
Reply: -0.0155

Task item: Another compound to check: Nc1nc(N)c(N=O)c(OCC2CCCCC2)n1
Reply: -0.0762

* * *

# Lookup of reported growth inhibition by drug plus 177Lu-lilotomab satetraxetan keyed by entry
- Tested on: U-2932
- MEASUREMENT_DESCRIPTION: growth inhibition by drug plus 177Lu-lilotomab satetraxetan (1 - RLU/untreated control) (fraction); higher = stronger inhibition
- STATED_CONDITIONS: 1000 nM; time (day): 4; 177Lu-lilotomab satetraxetan 1 ug/ml
Give the value as a plain number.

Example entries begin here.
COMPOUND	MEASUREMENT_TARGET	VALUE
O=C1[C@H](CC[C@H](O)c2ccc(F)cc2)[C@@H](c2ccc(O)cc2)N1c1ccc(F)cc1 [Ezetimibe (Zetia)]	U-2932	0.17
CC(C)C[C@H](NC(=O)CNC(=O)c1cc(Cl)ccc1Cl)B(O)O	U-2932	0.985
COc1ccc(-c2ccc3c(N4CCOCC4)nc(N4C[C@@H](C)O[C@@H](C)C4)nc3n2)cc1CO	U-2932	0.409

We next turn to a different compound, shown below.
Task item: Value wanted: growth inhibition by drug plus 177Lu-lilotomab satetraxetan (U-2932) of entry Cc1ccc([C@@H]2O[C@H](CO)[C@@H](O)[C@H](O)[C@H]2O)cc1Cc1ccc(-c2ccc(F)cc2)s1 [Canagliflozin]
Reply: 0.0117

* * *

- Tested on: U-2932
- MEASUREMENT_DESCRIPTION: growth inhibition by drug alone (1 - RLU/untreated control) (fraction); higher = stronger inhibition
- STATED_CONDITIONS: 10 nM; time (day): 5; 177Lu-lilotomab satetraxetan 0 ug/ml
Rule: growth inhibition by drug alone of -0.01 or more gives TRUE; anything lower gives FALSE.

Here are 3 compounds together with their reported answers.
COMPOUND	ASSIGNED_LABEL
S=C(NCc1ccc2c(c1)OCO2)N1CCN(c2ncnc3c2oc2ccccc23)CC1	FALSE
O=C1c2ccccc2C(=O)c2c(NCCc3ccc(O)cc3)ccc(NCCc3ccc(O)cc3)c21	FALSE
O=C(O[C@@H]1Cc2c(O)cc(O)cc2O[C@@H]1c1cc(O)c(O)c(O)c1)c1cc(O)c(O)c(O)c1 [(-)-Epigallocatechin gallate]	FALSE

Task item: # bool: growth inhibition by drug alone of O=C(Nc1ccccc1-c1cn2c(CN3CCNCC3)csc2n1)c1cnc2ccccc2n1 >= -0.01
Reply: FALSE

Task item: Another compound to check: Cc1c(CCOc2ccc(C(=O)O)cc2)c2cc(Cl)ccc2n1C(c1ccccc1)c1ccccc1
Reply: FALSE

Task item: Another compound to check: Nc1ncn([C@@H]2O[C@H](CO)[C@@H](O)[C@H]2O)c(=O)n1
Reply: FALSE

* * *

- Test system: RIVA
- MEASUREMENT_DESCRIPTION: growth inhibition by drug alone (1 - RLU/untreated control) (fraction); higher = stronger inhibition
- STATED_CONDITIONS: 10 nM; time (day): 6; 177Lu-lilotomab satetraxetan 0 ug/ml
# Lookup of reported growth inhibition by drug alone keyed by entry

COMPOUND	growth inhibition by drug alone
Nc1nccc(-c2ccc3noc(-c4ccc(Cl)cc4)c3c2)n1	-0.0926

We next turn to a different compound, shown below.
Task item: Value wanted: growth inhibition by drug alone (RIVA) of entry C[C@]1(O)C[C@@H](c2nc(-c3ccc4ccc(-c5ccccc5)nc4c3)c3c(N)nccn32)C1
Reply: -0.348

* * *

- Test system: U-2932
- MEASUREMENT_DESCRIPTION: growth inhibition by drug alone (1 - RLU/untreated control) (fraction); higher = stronger inhibition
- STATED_CONDITIONS: 1000 nM; time (day): 5; 177Lu-lilotomab satetraxetan 0 ug/ml
Counter-ions that a name gives are not always drawn.
# Lookup of reported growth inhibition by drug alone keyed by entry

Example entries begin here.
MOLECULE	growth inhibition by drug alone
CC(=O)Nc1nc(C)c(-c2ccc(Cl)c(S(=O)(=O)NCCO)c2)s1	0.248
CC(C)(C)c1cc(NC(=O)Nc2ccc(-c3cn4c(n3)sc3cc(OCCN5CCOCC5)ccc34)cc2)no1 [Quizartinib (AC220)]	-0.0983

Task item: Value wanted: growth inhibition by drug alone (U-2932) of entry COc1ccc(CCN2CCN(CCCc3ccccc3)CC2)cc1OC
Reply: -0.153

Task item: Another molecule to check: CCN(CC)CCCC(C)Nc1nc(C)cc(Nc2ccc3nc(C)cc(N)c3c2)n1 (stereo unspecified)
Reply: -0.022

Task item: Another molecule to check: COc1cc2ncnc(Nc3ccc(F)c(Cl)c3)c2cc1NC(=O)/C=C/CN1CCCCC1
Reply: -0.164

Task item: Another molecule to check: Nc1ncn([C@@H]2O[C@H](CO)[C@@H](O)[C@H]2O)c(=O)n1 [Azacitidine (Vidaza)]
Reply: 0.0181

Task item: Another molecule to check: O=c1cc(N2CCOCC2)oc2c(-c3cccc4c3sc3ccccc34)cccc12
Reply: 0.0314

Task item: Another molecule to check: O=C(O)CCCc1ccccc1 [4-Phenylbutyrate]
Reply: -0.0113

Task item: Another molecule to check: N#Cc1ccc(C(c2ccc(C#N)cc2)n2cncn2)cc1 [Letrozole]
Reply: -0.0553

Task item: Another molecule to check: CCc1c2c(nc3ccc(OC(=O)N4CCC(N5CCCCC5)CC4)cc13)-c1cc3c(c(=O)n1C2)COC(=O)[C@]3(O)CC [Irinotecan HCl Trihydrate (Campto)]
Reply: 0.96

Task item: Another molecule to check: O=C(O)c1ccc2c(c1)nc(Nc1cccc(Cl)c1)c1ccncc12 [cx-4945 (Silmitasertib)]
Reply: -0.0126

Task item: Another molecule to check: CCC(C)(C)C(=O)O[C@H]1C[C@@H](C)C=C2C=C[C@H](C)[C@H](CC[C@@H]3C[C@@H](O)CC(=O)O3)[C@H]21 [Simvastatin (Zocor)]
Reply: -0.0695

Task item: Another molecule to check: Nc1ccc(C(=O)Nc2cccc(-c3nc(N4CCOCC4)c4oc5ncccc5c4n3)c2)cn1
Reply: 0.118

Task item: Another molecule to check: COC(=O)Nc1nc2cc(C(=O)c3cccs3)ccc2[nH]1 [Nocodazole]
Reply: 0.972

Task item: Another molecule to check: CC[C@H]1OC(=O)[C@H](C)[C@@H](O[C@H]2C[C@@](C)(OC)[C@@H](O)[C@H](C)O2)[C@H](C)[C@@H](O[C@@H]2O[C@H](C)C[C@H](N(C)C)[C@H]2O)[C@](C)(O)C[C@@H](C)CN(C)[C@H](C)[C@@H](O)[C@]1(C)O [Azithromycin (Zithromax)]
Reply: 0.0532

Task item: Another molecule to check: Cc1ccc([N+](=O)[O-])cc1S(=O)(=O)N(C)/N=C/c1cnc2ccc(Br)cn12
Reply: 0.976

* * *

# Lookup of reported growth inhibition by drug plus 177Lu-lilotomab satetraxetan keyed by entry
- System: U-2932
- MEASUREMENT_DESCRIPTION: growth inhibition by drug plus 177Lu-lilotomab satetraxetan (1 - RLU/untreated control) (fraction); higher = stronger inhibition
- STATED_CONDITIONS: 10 nM; time (day): 3; 177Lu-lilotomab satetraxetan 1 ug/ml
Where a name gives a salt, the structure may show the parent alone.
Give the value as a plain number.

Example entries begin here.
COMPOUND	VALUE
C[C@H](NC(=O)Cc1cc(F)cc(F)c1)C(=O)N[C@@H]1C(=O)N(C)c2ccccc2-c2ccccc21	-0.062
CCc1cc(Nc2nccc(-c3c(-c4ccc(OC)c(C(=O)Nc5c(F)cccc5F)c4)nc4ccccn34)n2)c(OC)cc1N1CCC(N2CCN(S(C)(=O)=O)CC2)CC1	-0.00397
CN[C@@H](C)C(=O)N[C@H]1CN(C(=O)CC(C)C)CC[C@H]2CC[C@@H](C(=O)NC(c3ccccc3)c3ccccc3)N2C1=O	-0.0234
C[C@]12CC[C@H](O)CC1=CC[C@@H]1[C@@H]2CC[C@]2(C)C(c3cccnc3)=CC[C@@H]12	0.0329
O=C(/C=C/C#Cc1cccc(NS(=O)(=O)c2ccccc2)c1)NO	-0.0134
COc1ncc(-c2ccc3nccc(-c4ccnnc4)c3c2)cc1NS(=O)(=O)c1ccc(F)cc1F	0.744

We next turn to a different compound, shown below.
Task item: For the compound shown here, CN1CC[C@H](c2c(O)cc(O)c3c(=O)cc(-c4ccccc4Cl)oc23)[C@H](O)C1 [Flavopiridol hydrochloride] , give the reported growth inhibition by drug plus 177Lu-lilotomab satetraxetan.
Reply: -0.0108
